Entries and their BBB translocation (%) values follow.
# Tested on: HBEC-5i cells
# condition-description: 10 µM on apical side, 24 h incubation; percentage of compound in the basolateral side
Peptide text beside a SMILES is read from it. * marks the point of attachment. X1 = C=CC1=C(C)c2cc3[nH]c(cc4nc(cc5[nH]c(cc1n2)c(C)c5CCC(=O)*)C(CCC(=O)O)=C4C)c(C)c3C=C

compound	unit-of-measure	BBB translocation (%)
C=CC1=C(C)c2cc3[nH]c(cc4nc(cc5[nH]c(cc1n2)c(C)c5CCC(=O)N[C@H](C(=O)N[C@@H](CCC(N)=O)C(=O)N[C@@H](CCC(N)=O)C(=O)N[C@@H](CC(C)C)C(=O)N[C@H](C(=O)N[C@@H](CCCCN)C(=O)N[C@@H](CCCNC(=N)N)C(=O)N[C@@H](Cc1ccccc1)C(=O)N[C@@H](CO)C(=O)N[C@@H](CC(C)C)C(N)=O)[C@@H](C)O)C(C)C)C(CCC(=O)O)=C4C)c(C)c3C=C [(I)] (X1-VQQLTKRFSL-NH2)	%	43.6
C=CC1=C(C)c2cc3[nH]c(cc4nc(cc5[nH]c(cc1n2)c(C)c5CCC(=O)NCCCC[C@H](NC(=O)[C@H](CC(C)C)NC(=O)[C@H](CO)NC(=O)[C@H](Cc1ccccc1)NC(=O)[C@H](CCCNC(=N)N)NC(=O)[C@H](CCCCN)NC(=O)[C@@H](NC(=O)[C@H](CC(C)C)NC(=O)[C@H](CCC(N)=O)NC(=O)[C@H](CCC(N)=O)NC(=O)[C@@H](N)C(C)C)[C@@H](C)O)C(N)=O)C(CCC(=O)O)=C4C)c(C)c3C=C [Compound P2-PP] (H-VQQLTKRFSLK(X1)-NH2)	%	35.1
